target: HLA-A*03:01 (Homo sapiens, UniProt P04439); experiment: MHC binding assay (UV-ligand exchange, β2m ELISA); conditions: binding to HLA-A*03:01, UV-ligand exchange, β2m ELISA
QUANTITY NAME: Peptide exchange (MHC class I binding score, peptide exchange yield)

                                  substance                             tested_target      recorded_value
0  58 (VLYRPQLEK; listed as Homo sapiens) [compound 58]  HLA-A*03:01 (Homo sapiens, UniProt P04439)  ++++ (>75% = ++++)
1  38 (SLFPYYNNLY; listed as Homo sapiens) [compound 38]  HLA-A*03:01 (Homo sapiens, UniProt P04439)        + (>10% = +)
2  165 (AATIISSAK; listed as Homo sapiens) [compound 165]  HLA-A*03:01 (Homo sapiens, UniProt P04439)        + (>10% = +)
3  90 (RTALLWGLKK; listed as Homo sapiens) [compound 90]  HLA-A*03:01 (Homo sapiens, UniProt P04439)  ++++ (>75% = ++++)

Numbers sourced from patent US11872270B2.
